# Tested on: Plasmodium berghei
# procedureText: Screen against P. berghei liver stage (PbLuc), transformed with Luciferase, at 2uM
# Type: functional, HepG2
# conditionSet: tested at 2 uM
Out of some 68,000 compounds screened, about 2,700 (4%) showed an effect of 50% or more. This excerpt belongs to a sample that is enriched for strong results.

{"columns": ["molecule", "INHIBITION"],
 "data": [
  ["Cc1noc(C)c1-c1cncc(C2CCCN2Cc2ccncc2)n1 (stereo unspecified)", "27.8%"],
  ["NCCO[C@H]1C[C@@H](O)C12CCN(C1Cc3ccccc3C1)CC2", "-17.86%"],
  ["COc1ccccc1CNC1(CCO)CCOCC1", "13.12%"],
  ["CN(C)C(=O)NC1COC2(CCN(Cc3ccccc3)CC2)C1 (stereo unspecified)", "0.14%"],
  ["Cn1ccnc1CN1CCCC2(CCN(CC3CCCO3)CC2)C1 (stereo unspecified)", "26.46%"],
  ["Cc1csc(CN(C)C(=O)Nc2cc(F)cc(N3CCCC3)c2)n1", "0.12%"]
]}

###

# Test system: Plasmodium berghei
# procedureText: Screen against P. berghei liver stage (PbLuc), transformed with Luciferase, at 2uM
# Assay type: functional, HepG2
# conditionSet: tested at 2 uM
Hit rate of the full screen: of about 68,000 compounds, about 2,700 (4%) showed an effect of 50% or more. The list comes from a sample in which strong results are over-represented; it also holds close analogues and randomly drawn compounds.

{"columns": ["compound", "INHIBITION (%)"],
 "data": [
  ["CCc1ccc(NC(=O)N2C[C@@H]3C[C@H](C(=O)NC4CCC4)[C@H](C2)O3)cc1", 25.08],
  ["CCN1C[C@@H]2CN(C(=O)c3cccn3C)C[C@@H]2C1=O", 17.05],
  ["CCC(CO)N(Cc1ccco1)C(=O)c1ccccc1NC (stereo unspecified)", 4.57],
  ["Cn1ccnc1CN1CCC2(CC1)CN(c1cncnc1)C(=O)CO2", 7.71],
  ["CC(c1ccncc1)n1cc2nc(N(C)C)[nH]cc-2c1=O (stereo unspecified)", 20.82],
  ["CCn1ncc2c1C(COC)N(C(=O)c1cccs1)CC2 (stereo unspecified)", -23.14],
  ["O=C(CN1CCOC1=O)N1CCC2(CCc3ccccc32)CC1", 55.36],
  ["Cc1nccn1-c1cccc(N2CCC(OCC3CCCCO3)CC2)n1 (stereo unspecified)", -16.7],
  ["CC(Oc1ccccc1)C(=O)N1CCCN(Cc2nccn2C)CC1 (stereo unspecified)", -12.05],
  ["CC(C(=O)N1CCc2sccc2C1)N1CCC(S(N)(=O)=O)CC1 (stereo unspecified)", 44.37],
  ["O=C1CCCN1Cc1nnn2c1CN(c1ncccn1)CCC2", 1.48]
]}

###

Known INHIBITION of a selection of compounds
# Tested on: Plasmodium berghei
# procedureText: Screen against P. berghei liver stage (PbLuc), transformed with Luciferase, at 2uM
# Type: functional, HepG2
# conditionSet: tested at 2 uM
Screen size: about 68,000 compounds; about 2,700 (4%) showed an effect of 50% or more. What follows is part of a selection rich in strong results, with near analogues and random picks from the rest.

{"columns": ["compound", "INHIBITION (%)"],
 "data": [
  ["CCN(CC)CCN(C)c1nc(-c2ccc(Cl)cc2)nc2c1CNC2", 81.59],
  ["CC(C)c1nn(C)c(N(C)C)c1CNCc1ccnc(N(C)C)c1", 1.36],
  ["COc1cccc(C(=O)Nc2ccc(OCCC(N)=O)cc2)c1OC", -20.19],
  ["Cc1nn(C)c(N(C)C)c1CNCc1cccnc1N1CCOCC1", 28.81],
  ["Cc1ccc(C(=O)N2CCC3(CC2)CCN(Cc2ccccn2)C3=O)o1", 2.5],
  ["COc1cccc(OCC(=O)NS(=O)(=O)c2ccc(C)s2)c1", 51.21],
  ["CN(CC(=O)NC(C)(C)C)Cc1nc(-c2ccccc2)c[nH]1", -20.91],
  ["CCN(Cc1ccoc1)C(=O)NC1CCN(C(=O)OC(C)(C)C)C1 (stereo unspecified)", 7.93],
  ["Cn1nc(C2CCCN(Cc3ccc(F)c(F)c3)C2)c2nccnc21 (stereo unspecified)", 38.65],
  ["COCCN1C[C@H]2CN(Cc3cccc(OC)c3)CCN2C1=O", 36.44],
  ["Cc1ccc(S(=O)(=O)NC(=O)CCC(F)(F)F)cc1N(C)C", 3.39],
  ["CCn1nc(C)c(CNC(=O)c2nnc3ccc(OC)cc3n2)c1C", 33.58],
  ["CNC(=O)c1ccc(NC(=O)NC(C)c2cc(C)oc2C)c(C)c1 (stereo unspecified)", 41.05],
  ["O=C(c1ccncc1)N1CCCC1C1CCN(Cc2ccccc2)CC1 (stereo unspecified)", 45.82],
  ["Cc1cc(C(C)NC(=O)c2c[nH]c(=O)c(Cl)c2)c(C)o1 (stereo unspecified)", 25.72],
  ["Cc1cc(C)n(CC2CCN(CC(O)COc3ccccc3)CC2)n1 (stereo unspecified)", -1.96],
  ["NC(=O)CCOc1ccc(NC(=O)c2ccccc2OC(F)F)cc1", 58.14],
  ["CCn1nc(C)c(CNC(=O)c2nnc3ccc(Cl)cc3n2)c1C", 26.56],
  ["C[S+]([O-])c1nncn1CC(=O)c1ccc(Br)cc1 (stereo unspecified)", -59.71],
  ["Cc1cc(C(C)NC(=O)c2ccc(O)nc2)c(C)o1 (stereo unspecified)", 56.96],
  ["CNC(=O)c1ccc(NC(=O)NC(C)c2cc(C)oc2C)cc1 (stereo unspecified)", 50.59],
  ["COc1ccc(CN2C[C@H]3CCC[C@@H](CN(C)C4CC4)[C@H]3C2)cn1", 0.42],
  ["c1cnnc(N[C@@H]2CC[C@@H]3CN(Cc4c[nH]c5ccccc45)C[C@@H]32)c1", -2.96],
  ["Cc1ccc(N2CC[C@H]3CN(C(=O)c4ccn(C)n4)C[C@H]3C2)nn1", -32.66],
  ["CC(Cc1ccccc1F)C(=O)Nc1ccc(OCCC(N)=O)cc1 (stereo unspecified)", -11.88],
  ["Cn1cnc2c1CCN(CCCOc1ccc(C#N)cc1)C2", 40.29],
  ["CNC(=O)c1cccc(NC(=O)NCc2ccccc2)c1C", -7.16],
  ["O=C(C1CC1)N1CCCC1C1CCN(Cc2ccccc2)CC1 (stereo unspecified)", 53.86],
  ["CCS(=O)(=O)CCN1CCN(C2CCC(C(C)C)CC2)CC1 (stereo unspecified)", 20.83],
  ["Cc1cccc(COC[C@@]23CCC[C@@H]2CN(S(=O)(=O)N(C)C)C3)n1", 31.96],
  ["CCn1ccnc1CN(C)c1nc(-c2ccc(Cl)cc2)nc2c1CNC2", 5.28],
  ["O=C1N(Cc2ccccc2)C[C@H]2CN(Cc3ccccc3Cl)CCN12", 64.44],
  ["CS(=O)(=O)c1cn[nH]c1C1CCCCN1C(=O)c1cnccn1 (stereo unspecified)", 17.39],
  ["Cn1cnc2c1CCN(CCCOc1ccc(S(C)(=O)=O)cc1)C2", 72.05],
  ["COCc1nccc(C2CCCN(Cc3ccc(SC)cc3)C2)n1 (stereo unspecified)", 35.63],
  ["CSCCNC(=O)c1coc(COc2ccc(F)cc2)n1", 1.88],
  ["O=C(Cn1cccn1)N(CCO)CCSc1ccc(Cl)cc1", -5.53],
  ["Cc1cc(C(C)NC(=O)c2cnc3onc(C)c3c2)c(C)o1 (stereo unspecified)", 4.49],
  ["CCn1nc(C)c(CNC(=O)c2nnc3ccccc3n2)c1C", 70.37],
  ["CN(C)CCOCC1CN(Cc2cccs2)Cc2ccnn2C1 (stereo unspecified)", -85.93],
  ["COc1ccc(-c2cc3nc([C@H](C)NC(=O)C4CC4)nn3cn2)cc1", 20.72],
  ["Cc1ccc(CN(C)C(=O)CN2CCCC(Cn3cncn3)C2)cc1 (stereo unspecified)", 10.4],
  ["CCCC1(CO)CCCN(C(=O)CNC(C)=O)C1 (stereo unspecified)", 15.27],
  ["Cc1ccccc1-c1cc(C(=O)NCCN2CCCS2(=O)=O)[nH]n1", 36.65],
  ["Cc1nccn1-c1ccc(C(C)NCc2cccn2C)cc1 (stereo unspecified)", -28.15],
  ["CC(C)CN1CCC2(CC1)C(=O)Nc1ccc(C(=O)N(C)C)cc12", 11.28]
]}

###

# Test system: Plasmodium berghei
# procedureText: Screen against P. berghei liver stage (PbLuc), transformed with Luciferase, at 2uM
# Assay type: functional, HepG2
# conditionSet: tested at 2 uM
In all, about 68,000 compounds went through this assay and about 2,700 (4%) showed an effect of 50% or more. Many of the other results were omitted from the sample, so strong results are more common in it than they were.
INHIBITION under 10% gets true, anything at or over 10% gets false.

{"columns": ["compound", "className"],
 "data": [
  ["O=C(C1CC1)N1CCN(C(=O)C2CC(=O)N(c3ccccc3Br)C2)CC1 (stereo unspecified)", "false"],
  ["CS(=O)(=O)N1CC(c2n[nH]c3ncccc23)C1", "false"],
  ["CC(C)n1nccc1NC(=O)NCCc1nc2ccc(F)cc2n1C", "true"],
  ["CS(=O)(=O)N1CC(c2ncn3ccccc23)C1", "false"],
  ["O=C(C1CC(=O)N(c2ccccc2Br)C1)N1CCCCCC1 (stereo unspecified)", "false"],
  ["Cc1cccc(N2CC[C@@H]3CN(Cc4csc(C)n4)CCO[C@@H]3C2)n1", "false"],
  ["COC1CCN(C(=O)C2CC(=O)N(c3ccccc3Br)C2)CC1 (stereo unspecified)", "false"],
  ["N#Cc1c(F)cccc1Nc1cnn(CC(N)=O)c1", "true"],
  ["CN(C(=O)C1CCOCC1)[C@@H]1CCC[C@@H](N2CCCC2)[C@@H]1O", "true"],
  ["Cn1c(CCNC(=O)Nc2cn[nH]c2)nc2ccc(F)cc21", "false"],
  ["Cn1c(CCCNC(=O)Nc2cn[nH]c2)nc2ccccc21", "false"]
]}
